# Test system: Rattus norvegicus
# assayInfo: Mean excretion of Cl- in conscious rats at a dose of 0.3 mg/kg given orally
# Format: ADME, organism-based, Urine
# Design: dose 0.3 mg/kg, route oral
# experimentalSetup: in vivo, po
Entries annotated with measured Mean excretion of Cl-
Please give a number only; it is taken to be in m equiv.

These solved cases illustrate the format of a correct answer.
CSc1ccc2c(c1)C(c1ccccc1)=NCc1nnc(C(CN(C)C)c3ccccc3)n1-2 (centres undefined): 0.76
CN(C)CC(c1ccccc1)c1nnc2n1-c1ccc(Cl)cc1C(c1ccccc1)=NC2 (centres undefined): 0.73

Param item = CN(C)CCc1nnc2n1-c1ccc(Br)cc1C(c1ccccc1)=NC2 ; retrieve measured Mean excretion of Cl-.
0.66

What would you report for COc1ccc(C(CN(C)C)c2nnc3n2-c2ccc(Cl)cc2C(c2ccccc2)=NC3)cc1 (centres undefined) ?
0.71

* * *

Entries annotated with measured Mean urine volume
# Species on record: Rattus norvegicus
# assayInfo: […]
# Type: ADME, organism-based, Urine
# Design: dose 100 mg/kg, route oral
# experimentalSetup: in vivo, po, 100 mg/kg
Please give a number only; it is taken to be in mL.

CN(C)CC(c1ccccc1)c1nnc2n1-c1ccc(I)cc1C(c1ccccc1)=NC2 (stereo not given): 14.57
CN(C)CC(c1ccccc1)c1nnc2n1-c1ccc(Br)cc1C(c1ccccc1)=NC2 (stereo not given): 7.74
I.NCC(c1ccccc1)c1nnc2n1-c1ccc(Cl)cc1C(c1ccccc1)=NC2 (stereo not given): 8.43
NS(=O)(=O)c1cc(C(=O)O)c(NCc2ccco2)cc1Cl [FUROSEMIDE]: 27.8

Param item = CSc1ccc2c(c1)C(c1ccccc1)=NCc1nnc(C(CN(C)C)c3ccccc3)n1-2 (stereo not given) ; retrieve measured Mean urine volume.
14.14

* * *

Entries annotated with measured Mean excretion of Cl-
# Tested on: Rattus norvegicus
# assayInfo: Mean excretion of chloride in conscious rats at a dose of 30 mg/kg given orally
# Type: ADME, organism-based
# Design: dose 30 mg/kg, route oral
# experimentalSetup: in vivo, po
Please give a number only; it is taken to be in m equiv.

CN(C)CC(c1ccccc1)c1nnc2n1-c1ccc(Br)cc1C(c1ccccc1)=NC2 (centres undefined): 1.16
CN(C)CC(c1ccccc1)c1nnc2n1-c1ccc(Cl)cc1C(c1ccccc1)=NC2 (centres undefined): 1.72
CSc1ccc2c(c1)C(c1ccccc1)=NCc1nnc(C(CN(C)C)c3ccccc3)n1-2 (centres undefined): 1.69
CN(C)CCc1nnc2n1-c1ccc(Br)cc1C(c1ccccn1)=NC2: 1.05
CN(C)CC(c1ccccc1Cl)c1nnc2n1-c1ccc(Cl)cc1C(c1ccccc1)=NC2 (centres undefined): 1.21
CN(C)CCc1nnc2n1-c1ccc(Br)cc1C(c1ccccc1)=NC2: 0.94
COc1cccc(C(CN(C)C)c2nnc3n2-c2ccc(Cl)cc2C(c2ccccc2)=NC3)c1 (centres undefined): 1.99
I.NCC(c1ccccc1)c1nnc2n1-c1ccc(Cl)cc1C(c1ccccc1)=NC2 (centres undefined): 1.72
COc1ccc(C(CN(C)C)c2nnc3n2-c2ccc(Cl)cc2C(c2ccccc2)=NC3)cc1 (centres undefined): 1.55
Nc1nc(N)c2nc(-c3ccccc3)c(N)nc2n1: 1.15

Param item = CN(C)CC(c1ccccc1)c1nnc2n1-c1ccc(I)cc1C(c1ccccc1)=NC2 (centres undefined) ; retrieve measured Mean excretion of Cl-.
1.73

What would you report for CC1N=C(c2ccccc2)c2cc(Cl)ccc2-n2c1nnc2C(CN(C)C)c1ccccc1 (centres undefined) ?
1.64

What would you report for COc1ccccc1C(CN(C)C)c1nnc2n1-c1ccc(Cl)cc1C(c1ccccc1)=NC2 (centres undefined) ?
0.76

What would you report for NS(=O)(=O)c1cc2c(cc1Cl)NCNS2(=O)=O [HYDROCHLOROTHIAZIDE] ?
2.03
